Please provide measured pEC50 for the entries that follow.
tested.on: HM74A (Homo sapiens, UniProt Q8TDS4)
Construct: pcDNA3.1 vectors; co-expressing chimeric G protein Gqi9
Sequence (Q8TDS4 whole entry): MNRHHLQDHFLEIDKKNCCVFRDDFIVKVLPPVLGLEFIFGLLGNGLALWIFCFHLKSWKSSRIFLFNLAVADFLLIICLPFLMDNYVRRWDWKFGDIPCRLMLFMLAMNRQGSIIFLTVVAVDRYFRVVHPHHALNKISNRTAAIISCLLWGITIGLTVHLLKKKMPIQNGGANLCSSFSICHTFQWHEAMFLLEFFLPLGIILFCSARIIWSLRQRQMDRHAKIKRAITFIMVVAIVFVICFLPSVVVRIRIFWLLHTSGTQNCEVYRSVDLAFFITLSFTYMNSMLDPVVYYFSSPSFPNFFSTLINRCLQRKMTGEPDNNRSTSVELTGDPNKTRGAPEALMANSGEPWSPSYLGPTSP
test.protocol: Secondary fluorescent calcium indicator assay (FLIPR)
particulars: HEK-293 cells stably expressing HM74A and chimeric G protein Gqi9; % stimulation of maximal nicotinic acid response (100 μM)
Answers are plain numbers, as −log10 of the molar value.

O=C(COc1ccc(-c2ccccc2)cc1)Nc1cscc1C(=O)O [Example 2]: 7.31
O=C(COc1ccc(-c2ccc(F)cc2)cn1)Nc1cscc1C(=O)O [Example 11]: 6.88

# next molecule below
## Input Requested field: pEC50. Item: CC(C)(C)c1ccc(OCC(=O)Nc2cscc2C(=O)O)cc1 [Example 23]
## Output 6.65

* * *

quantity.measured: melting point

O=C(COc1ccc(-c2ccccc2)cc1)Nc1cscc1C(=O)O: 247 to 251 °C
COc1cccc(-c2ccc(OCC(=O)Nc3cscc3C(=O)O)cc2)c1: 187 to 189 °C
CC(=O)c1cccc(-c2ccc(OCC(=O)Nc3cscc3C(=O)O)cc2)c1: 212 to 214 °C
O=C(COc1ccc(Cl)c(Cl)c1)Nc1cscc1C(=O)O: 258 to 264 °C
COc1ccccc1-c1ccc(OCC(=O)Nc2cscc2C(=O)O)nc1: 194 to 197 °C
COc1ccccc1-c1ccc(OCC(=O)Nc2cscc2C(=O)O)cc1: 196 to 199 °C
O=C(COc1ccc(-c2cccc(Cl)c2)cc1)Nc1cscc1C(=O)O: 216 to 218 °C
Cc1ccccc1-c1ccc(OCC(=O)Nc2cscc2C(=O)O)cc1: 207 to 209 °C

Parameters: items (list). Returns: melting point for each item.
1. CC(=O)Nc1cccc(-c2ccc(OCC(=O)Nc3cscc3C(=O)O)cc2)c1
2. O=C(COc1ccc(-c2ccccc2Cl)cn1)Nc1cscc1C(=O)O
3. O=C(COc1ccc(-c2ccc(F)cc2)cc1)Nc1cscc1C(=O)O

## Output
1: 250 to 253 °C; 2: 218 to 223 °C; 3: 244 to 251 °C
